Target: T1, beta-catenin in TCF/LEF luciferase reporter cells (Homo sapiens (Human), UniProt P35222 1-781)
T1 sequence: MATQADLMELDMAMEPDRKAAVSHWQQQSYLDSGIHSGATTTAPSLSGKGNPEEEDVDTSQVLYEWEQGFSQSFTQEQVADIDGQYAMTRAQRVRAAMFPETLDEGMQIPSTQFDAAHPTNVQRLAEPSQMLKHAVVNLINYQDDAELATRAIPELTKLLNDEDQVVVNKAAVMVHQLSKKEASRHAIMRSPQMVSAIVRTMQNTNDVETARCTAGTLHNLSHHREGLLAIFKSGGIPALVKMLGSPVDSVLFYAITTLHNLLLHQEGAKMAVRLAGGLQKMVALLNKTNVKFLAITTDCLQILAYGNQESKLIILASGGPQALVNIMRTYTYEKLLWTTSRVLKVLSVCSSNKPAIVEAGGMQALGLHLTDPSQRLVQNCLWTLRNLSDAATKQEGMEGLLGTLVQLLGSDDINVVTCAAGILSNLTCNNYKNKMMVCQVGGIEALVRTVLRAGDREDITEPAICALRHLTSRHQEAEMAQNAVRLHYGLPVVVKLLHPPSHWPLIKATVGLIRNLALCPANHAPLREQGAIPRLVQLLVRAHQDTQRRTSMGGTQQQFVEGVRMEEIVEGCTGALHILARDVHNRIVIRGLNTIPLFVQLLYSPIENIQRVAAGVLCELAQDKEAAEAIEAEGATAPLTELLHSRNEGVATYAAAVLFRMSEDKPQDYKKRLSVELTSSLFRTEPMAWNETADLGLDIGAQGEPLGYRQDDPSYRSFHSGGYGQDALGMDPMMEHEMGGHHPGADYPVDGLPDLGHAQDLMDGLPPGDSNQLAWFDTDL
Assay: cell-based or functional assay
Starred links: 1 amine or outer side, 2 acyl side, 3 side chain; linkers in the order of their positions; H or OH if unused. Positions of bridges follow the written chain, without caps; N, C: chain ends. Non-standard residues stand in square brackets, D forms with d. Primed or numbered codes have the meaning given here. PyrS2(3) = (S)-3-amino-1-((pent-4-en-1-yloxy)carbonyl)pyrrolidine-3-carboxylic acid, stapling residue, C=CCCCOC(=O)N1CC[C@@](N[*:1])(C(=O)[*:2])C1; PyrS2″ = (S)-3-amino-1-((pent-4-en-1-yloxy)carbonyl)pyrrolidine-3-carboxylic acid (stapling residue), C=CCCCOC(=O)N1CC[C@@](N[*:1])(C(=O)[*:2])C1; TfeGA = (S)-2-amino-3-((carboxymethyl)(2,2,2-trifluoroethyl)amino)propanoic acid, O=C([C@H](CN(CC(=O)[*:3])CC(F)(F)F)N[*:1])[*:2]; PyrS2 = (S)-3-amino-1-((pent-4-en-1-yloxy)carbonyl)pyrrolidine-3-carboxylic acid, C=CCCCOC(=O)N1CC[C@@](N[*:1])(C(=O)[*:2])C1; B5(3) = 2,2-bis(4-pentenyl)glycine (stitching residue), C=CCCCC(CCCC=C)(N[*:1])C(=O)[*:2]; B5″ = 2,2-bis(4-pentenyl)glycine, stitching residue, C=CCCCC(CCCC=C)(N[*:1])C(=O)[*:2]; Phe(2-Cl) = N[C@@H](Cc1ccccc1Cl)C(=O)O; Bta = N[C@@H](Cc1csc2ccccc12)C(=O)O; αAllylPro = C=CC[C@@]1(C(=O)O)CCCN1; tBuAla = CC(C)(C)C[C@H](N)C(=O)O; 3Thi = N[C@@H](Cc1ccsc1)C(=O)O; hSer = N[C@@H](CCO)C(=O)O
MEASURED_PARAMETER: TCF Reporter Assay Abs IC50 (uM), peptide + ST-Protein (µM)
Respond numerically; units are µM and should not be typed.

Summary for this binder, Ac-[αAllylPro]D[tBuAla][B5(3)]D[TfeGA]AAFL[PyrS2][3Thi][Bta]Q-NH2 (staple 1-4, 4-11) [I-849] : TCF Reporter Assay Abs IC50 (uM), peptide + ST-Protein is 0.2

Entry Ac-[αAllylPro]D[tBuAla][B5″]D[TfeGA]AAFN[PyrS2(3)][3Thi][Bta]Q-NH2 (staple 1-4, 4-11) [I-762] , TCF Reporter Assay Abs IC50 (uM), peptide + ST-Protein reported as 0.3

Reported TCF Reporter Assay Abs IC50 (uM), peptide + ST-Protein of Ac-[αAllylPro]D[tBuAla][B5(3)]D[TfeGA]AAF[hSer][PyrS2″][Phe(2-Cl)][Bta][hSer]-NH2 (staple 1-4, 4-11) [I-993] : 0.2

Memo: Ac-[αAllylPro]D[tBuAla][B5(3)]D[TfeGA]AAFT[PyrS2″][Phe(2-Cl)][Bta]Q-NH2 (staple 1-4, 4-11) [I-922] , reported TCF Reporter Assay Abs IC50 (uM), peptide + ST-Protein: 0.2

Attribution: patent US20240116985A1
